- TESTED TARGET: CYP3A4 (Homo sapiens)
- Sequence (P08684 whole entry): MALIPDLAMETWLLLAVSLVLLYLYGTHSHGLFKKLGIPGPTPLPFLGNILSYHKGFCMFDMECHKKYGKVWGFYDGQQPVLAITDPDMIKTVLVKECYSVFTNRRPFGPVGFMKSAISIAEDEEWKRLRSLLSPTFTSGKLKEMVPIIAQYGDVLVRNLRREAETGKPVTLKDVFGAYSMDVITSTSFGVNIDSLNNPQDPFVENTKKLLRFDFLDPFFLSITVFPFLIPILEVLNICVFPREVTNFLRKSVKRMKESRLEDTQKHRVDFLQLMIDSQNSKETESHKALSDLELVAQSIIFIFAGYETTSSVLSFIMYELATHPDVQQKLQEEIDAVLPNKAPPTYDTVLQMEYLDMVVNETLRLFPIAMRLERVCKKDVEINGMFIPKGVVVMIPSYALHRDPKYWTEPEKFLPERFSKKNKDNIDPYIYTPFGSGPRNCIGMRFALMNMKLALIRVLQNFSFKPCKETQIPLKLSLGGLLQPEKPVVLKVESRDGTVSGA
- ASSAY: Inhibition of recombinant human CYP3A4 assessed as remaining activity at 25 uM by luminescence -based microplate reader assay
- Type: ADME
- ASSAY SETUP: read-out: Activity
TEST READOUT: activity at 25 µM (%)
Give bare numbers, in %.

Asked: State its activity at 25 µM: COc1ccccc1N1CCN(CC(O)CN2C(=O)NC(C)(c3ccc(F)cc3)C2=O)CC1 (stereo unspecified)
Given back: 50

====

Kindly supply the reported pKi values for the records listed here.
- TESTED TARGET: 5-hydroxytryptamine receptor 7 (Homo sapiens, UniProt P34969)
- Sequence (P34969 whole entry): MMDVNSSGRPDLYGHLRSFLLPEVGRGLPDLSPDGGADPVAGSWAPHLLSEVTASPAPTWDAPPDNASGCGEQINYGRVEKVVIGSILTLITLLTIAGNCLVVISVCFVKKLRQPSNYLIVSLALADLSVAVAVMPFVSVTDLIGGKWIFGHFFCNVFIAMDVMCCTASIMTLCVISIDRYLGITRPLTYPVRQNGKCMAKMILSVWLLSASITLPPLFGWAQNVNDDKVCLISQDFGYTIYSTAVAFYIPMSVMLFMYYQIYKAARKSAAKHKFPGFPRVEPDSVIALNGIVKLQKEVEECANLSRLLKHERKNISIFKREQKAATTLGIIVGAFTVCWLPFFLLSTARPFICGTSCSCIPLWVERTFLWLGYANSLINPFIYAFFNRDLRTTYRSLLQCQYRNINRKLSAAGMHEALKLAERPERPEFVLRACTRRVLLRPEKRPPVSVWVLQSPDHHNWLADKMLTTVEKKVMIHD
Numbers only, as −log10 of the molar value.

Example compounds with recorded pKi:
Asked: State its pKi: CC1(c2ccc(F)cc2)NC(=O)N(CC(O)CN2CCN(c3ccc(Cl)cc3)CC2)C1=O (centres undefined)
Given back: 6.04

Asked: State its pKi: CC1(c2ccc(F)cc2)NC(=O)N(CC(O)CN2CCN(c3cccc(Cl)c3Cl)CC2)C1=O (centres undefined)
Given back: 7.77

Asked: State its pKi: CC1(c2ccc(F)cc2)NC(=O)N(CC(O)CN2CCN(c3ccccc3Cl)CC2)C1=O (centres undefined)
Given back: 7.33

As a next step, examine the compound that follows.
Asked: State its pKi: Cc1ccc(C)c(N2CCN(CC(O)CN3C(=O)NC(C)(c4ccc(F)cc4)C3=O)CC2)c1 (centres undefined)
Given back: 7.25

====

- Species on record: Homo sapiens
- ASSAY: Selectivity ratio of Ki for human 5-HT1A receptor to Ki for human 5-HT7 receptor
Kindly supply the reported Ratio Ki values for the records listed here.
One number for each entry.

Example molecules with recorded Ratio Ki:
Asked: State its Ratio Ki: CC1(c2ccc(F)cc2)NC(=O)N(CC(O)CN2CCN(C(c3ccccc3)c3ccccc3)CC2)C1=O (stereo not drawn)
Given back: 71

Asked: State its Ratio Ki: COc1cccc(N2CCN(CC(O)CN3C(=O)NC(C)(c4ccc(F)cc4)C3=O)CC2)c1 (stereo not drawn)
Given back: 33

Asked: State its Ratio Ki: CC1(c2ccc(F)cc2)NC(=O)N(CC(O)CN2CCN(c3ccccc3Cl)CC2)C1=O (stereo not drawn)
Given back: 8

Asked: State its Ratio Ki: CC1(c2ccc(F)cc2)NC(=O)N(CC(O)CN2CCN(c3ccccc3)CC2)C1=O (stereo not drawn)
Given back: 12

Asked: State its Ratio Ki: CC1(c2ccc(F)cc2)NC(=O)N(CC(O)CN2CCN(c3ccc(F)cc3F)CC2)C1=O (stereo not drawn)
Given back: 8

Hi team, please reply with Ratio Ki for each item in this list.
1. CC1(c2ccc(F)cc2)NC(=O)N(CC(O)CN2CCN(c3ccccc3C#N)CC2)C1=O (stereo not drawn)
2. Cc1ccc(N2CCN(CC(O)CN3C(=O)NC(C)(c4ccc(F)cc4)C3=O)CC2)cc1C (stereo not drawn)
3. CCOc1ccccc1N1CCN(CC(O)CN2C(=O)NC(C)(c3ccc(F)cc3)C2=O)CC1 (stereo not drawn)
4. CC1(c2ccc(F)cc2)NC(=O)N(CC(O)CN2CCN(c3ccc(Cl)cc3)CC2)C1=O (stereo not drawn)
5. CC1(c2ccc(F)cc2)NC(=O)N(CC(O)CN2CCN(c3cccc(Cl)c3Cl)CC2)C1=O (stereo not drawn)

Given back:
1. 23
2. 6
3. 10
4. 6
5. 3

====

Kindly supply the reported Ratio Ki values for the records listed here.
- Species on record: Homo sapiens
- ASSAY: Selectivity ratio of Ki for human 5-HT1A receptor to Ki for human 5-HT7 receptor

Example compounds with recorded Ratio Ki:
Asked: State its Ratio Ki: CC1(c2ccc(F)cc2)NC(=O)N(CC(O)CN2CCN(c3ccc(F)cc3)CC2)C1=O (stereo not drawn)
Given back: 8

Asked: State its Ratio Ki: CC1(c2ccc(F)cc2)NC(=O)N(CC(O)CN2CCN(c3ccccc3F)CC2)C1=O (stereo not drawn)
Given back: 7

As a next step, examine the compound that follows.
Asked: State its Ratio Ki: Cc1ccc(C)c(N2CCN(CC(O)CN3C(=O)NC(C)(c4ccc(F)cc4)C3=O)CC2)c1 (stereo not drawn)
Given back: 23
